- Test description: C. albicans growth inhibition with fluconazole, primary screen, CaCi-2 strain, Alamar Blue fluorescence (AID 1979);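 note: all wells also contain fluconazole at 8 µg/ml as a sub-toxic cotreatment; 0% = median of DMSO wells and 100% = median of geldanamycin control wells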
- Assay context: C. albicans CaCi-2 (fluconazole-resistant clinical isolate) + fluconazole, 48 h, hits give high values, concentration not given here
Screen size: about 300,000 compounds; about 1,700 (0.57%) were called active. Inconclusive results (about 2%) are left out. Many of the other results were omitted from the sample, so actives are more common in it than they were.
Quantity: growth inhibition

A selection of reference data follows.
>  <Compound>
CCOc1cc(/C=N/NC(=O)c2cccc(S(=O)(=O)N3CCOCC3)c2)ccc1OCC(=O)N(C)C

>  <growth inhibition>
3.22% (inactive)

$$$$
>  <Compound>
O=C(CCc1ccccc1)NNC(=O)c1ccc(Br)cc1

>  <growth inhibition>
5.83% (inactive)

$$$$
>  <Compound>
Cc1ccnc(NC(=O)CNC(=O)c2ccccc2)c1

>  <growth inhibition>
-1.64% (inactive)

$$$$

Query string: Param item = COCCOC(=O)C1=C(C)NC(=O)NC1c1cc2c(cc1Br)OCO2 (stereo unspecified) ; retrieve measured growth inhibition.
Result string: -1.28% (inactive)

Query string: Param item = CC(=O)Nc1ccc(NC(=O)CSc2nnnn2C2CCCCC2)cc1 ; retrieve measured growth inhibition.
Result string: -2.4% (inactive)

These entries and their values trace back to PubChem BioAssay AID1979.
